Test system: Plasmodium berghei
Assay: Screen against P. berghei liver stage (PbLuc), transformed with Luciferase, at 2uM
Format: functional, HepG2
Conditions: tested at 2 uM
Out of some 68,000 compounds screened, about 2,700 (4%) showed an effect of 50% or more. This is one part of a sample in which strong results are shown more often than they occur.
Measured Endpoint: INHIBITION
Write the figure, then the unit, nothing else.

State the recorded INHIBITION for every item in the following list.
1. O=C(NCc1ccccc1Cn1cncn1)N1CCCC1
2. CCc1c(C(=O)N2CC(C)OC(C)(C)C2)cnn1-c1ccccn1 (centres undefined)
3. C=c1ncsc1=C1NN=C(C2CCCN2C(=O)CCn2ccc(C)n2)O1 (centres undefined)

Output line:
1: -9.49%; 2: 24.23%; 3: -16.2%

State the recorded INHIBITION for every item in the following list.
1. Cc1nc(C2CCCN2CCCc2nc3ccccc3o2)no1 (centres undefined)
2. CC1CN(c2ncccc2C(=O)Nc2cccc3c2CCCC3)CCN1 (centres undefined)
3. CCc1n[nH]c(C2CN(Cc3nnc(C4CCC4)o3)CCO2)n1 (centres undefined)
4. CCC1=NC(SCC(=O)c2ccc(C)cc2)c2cc(CC)sc2N1 (centres undefined)

Output line:
["17.19%", "39.51%", "-45.21%", "33.58%"]

State the recorded INHIBITION for every item in the following list.
1. Cc1cccc(C(=O)Nc2cccc3c2CCCC3)n1
2. CC1CN(C(=O)c2cnn(-c3ccccn3)c2C(C)C)CC(C)(C)O1 (centres undefined)
3. CN(Cc1ccccc1)CC1(O)CCCN(CC(C)(C)C)C1=O (centres undefined)
4. CN(Cc1ccco1)[C@@H]1CN(Cc2ccoc2)C[C@@H]2CCCO[C@@H]21

Output line:
["-25.13%", "-4.15%", "16.64%", "-11.13%"]
